Reported log10 IC50 by item:
target: hGYS1 enzyme (recombinant hGYS1/GN1 protein) (Homo sapiens (Human)); experiment: GYS1 coupled enzyme assay (PK/LDH); conditions: hGYS1/GN1 50 nM, UDP-Glucose 0.8 mM, G6P 1 mM; geometric mean of at least 2 runs
measurement_name: log10 IC50 (log10 of the value in nM)

[[record]]
molecule = "CC(=O)Nc1ccc(CC(=O)N2C[C@H](F)C[C@H]2C(=O)N[C@@H](c2ccccc2)c2ccc(C(C)C)cc2)cc1 [Compound 107]"
observed = 1.28

[[record]]
molecule = "CC(C)c1ccc([C@@H](NC(=O)[C@@H]2C[C@@H](F)CN2C(=O)Cn2cc(N3CCNCC3)nn2)c2ccccc2)cc1F [Compound 375]"
observed = 0.78

[[record]]
molecule = "CC(C)c1ccc([C@@H](NC(=O)[C@@H]2C[C@@H](F)CN2C(=O)Cn2nnc3ccccc32)c2ccccc2)cc1 [Compound 68]"
observed = 1.53

[[record]]
molecule = "CC(=O)NCc1cnnn1CC(=O)N1C[C@H](F)C[C@H]1C(=O)N[C@@H](c1ccccc1)c1ccc(C(C)C)cc1 [Compound 243]"
observed = 1.93

[[record]]
molecule = "CC(C)c1ccc(C(NC(=O)[C@@H]2C[C@@H](F)CN2C(=O)Cc2cnn[nH]2)c2ccn[nH]2)cc1F (single isomer, unassigned) [Compound 623]"
observed = 2.05

[[record]]
molecule = "CC(C)c1ccc([C@@H](NC(=O)[C@@H]2C[C@@H](F)CN2C(=O)Cc2ncco2)c2ccccc2)nc1 [Compound 270]"
observed = 1.98


* * *

target: hGYS1 enzyme (recombinant hGYS1/GN1 protein) (Homo sapiens (Human)); assay: GYS1 coupled enzyme assay (PK/LDH); conditions: hGYS1/GN1 50 nM, UDP-Glucose 0.8 mM, G6P 1 mM; geometric mean of at least 2 runs
pIC50: −log10 of the molar value.
measurement_name: pIC50

[[record]]
compound = "CC(C)c1ccc([C@@H](NC(=O)[C@@H]2C[C@@H](F)CN2C(=O)Cc2[nH]nnc2C(F)(F)F)c2ccccc2)nc1 [Compound 268]"
observed = 7.74

[[record]]
compound = "O=C(NC(c1ccccc1)c1cc(F)c(C2CC2)c(F)c1)[C@@H]1C[C@@H](F)CN1C(=O)Cc1ncco1 (single isomer, unassigned) [Compound 662]"
observed = 6.64

[[record]]
compound = "CC(C)c1ccc([C@@H](NC(=O)[C@@H]2C[C@@H](F)CN2C(=O)Cc2cnc3ccccn23)c2ccccc2)cc1 [Compound 121]"
observed = 7.82


* * *

target: hGYS1 enzyme (recombinant hGYS1/GN1 protein) (Homo sapiens (Human)); test: GYS1 coupled enzyme assay (PK/LDH); conditions: hGYS1/GN1 50 nM, UDP-Glucose 0.8 mM, G6P 1 mM; geometric mean of at least 2 runs
Reported IC50 by item:
measurement_name: IC50 (nM)

[[record]]
compound_structure = "CC(C)c1ccc([C@@H](NC(=O)[C@@H]2C[C@@H](F)CN2C(=O)Cn2cc(Cl)cn2)c2ccccc2)cc1"
measurement_units = "nM"
observed = 46

[[record]]
compound_structure = "CC(=O)N[C@H](CCC(=O)O)C(=O)N1C[C@H](F)C[C@H]1C(=O)N[C@@H](c1ccccc1)c1ccc(C(C)C)cc1"
measurement_units = "nM"
observed = 128

[[record]]
compound_structure = "O=C(N[C@@H](c1ccccc1)c1ccc(C2CC2)c(F)c1)[C@@H]1C[C@@H](F)CN1C(=O)COC(=O)N1CCN(CC(F)(F)F)CC1"
measurement_units = "nM"
observed = 98


* * *

target: hGYS1 enzyme (recombinant hGYS1/GN1 protein) (Homo sapiens (Human)); experiment: GYS1 coupled enzyme assay (PK/LDH); type: biochemical; settings: hGYS1/GN1 50 nM, UDP-Glucose 0.8 mM, G6P 1 mM; geometric mean of at least 2 runs
Note to self: IC50 under 40 nM means true (1), ties and anything higher get false (0).

[[record]]
compound = "Cc1noc(C)c1CC(=O)N1C[C@H](F)C[C@H]1C(=O)N[C@@H](c1ccccc1)c1ccc(C(C)C)cc1"
classification = "false (0)"

[[record]]
compound = "CC1(c2ccc([C@@H](NC(=O)[C@@H]3C[C@@H](F)CN3C(=O)Cc3n[nH]c4ccccc34)c3ccccc3)nc2F)CC1"
classification = "true (1)"

[[record]]
compound = "CC(C)c1ccc([C@@H](NC(=O)[C@@H]2C[C@@H](F)CN2C(=O)CNC(=O)N2CC(F)(F)C2)c2ccccc2)nc1"
classification = "false (0)"

[[record]]
compound = "CC(C)c1ccc([C@@H](NC(=O)[C@@H]2C[C@@H](F)CN2C(=O)Cn2ccc(=O)[nH]c2=O)c2ccccc2)nc1F"
classification = "true (1)"

[[record]]
compound = "CC(C)c1ccc([C@@H](NC(=O)[C@@H]2C[C@@H](F)CN2C(=O)C(O)CO)c2ccccc2)cc1 (stereo partly shown)"
classification = "false (0)"

[[record]]
compound = "Cc1coc(CC(=O)N2C[C@H](F)C[C@H]2C(=O)N[C@@H](c2ccccc2)c2ccc(C3CC(F)(F)C3)c(F)n2)n1"
classification = "true (1)"

[[record]]
compound = "CC(C)c1ccc([C@@H](NC(=O)[C@@H]2C[C@@H](F)CN2C(=O)Cc2cnn(C)c2)c2ccccc2)cc1"
classification = "true (1)"

[[record]]
compound = "Cc1nn(C)c(C)c1CC(=O)N1C[C@H](F)C[C@H]1C(=O)N[C@@H](c1ccccc1)c1ccc(C(C)C)c(F)c1"
classification = "true (1)"

[[record]]
compound = "CC(C)c1ccc([C@@H](NC(=O)[C@@H]2C[C@@H](F)CN2C(=O)Cc2cnn[nH]2)c2ccccc2)cc1"
classification = "true (1)"

[[record]]
compound = "CC(=O)N1C[C@@H]2C[C@@H]2[C@H]1C(=O)N[C@@H](c1ccccc1)c1ccc(C(C)C)cc1"
classification = "false (0)"

[[record]]
compound = "CC(C)c1ccc([C@@H](NC(=O)[C@@H]2C[C@@H](F)CN2C(=O)CCc2cncnc2)c2ccccc2)cc1"
classification = "false (0)"

[[record]]
compound = "CC1(c2ccc([C@@H](NC(=O)[C@@H]3C[C@@H](F)CN3C(=O)Cn3nnc4ccccc43)c3ccccc3)nc2F)CC1"
classification = "false (0)"

[[record]]
compound = "CC(C)c1ccc([C@@H](NC(=O)[C@@H]2C[C@@H](F)CN2C(=O)Cn2cc(N3CCC3)nn2)c2ccccc2)nc1"
classification = "true (1)"


* * *

Biological target: hGYS1 enzyme (recombinant hGYS1/GN1 protein) (Homo sapiens (Human))
Experiment: GYS1 coupled enzyme assay (PK/LDH)
Settings: hGYS1/GN1 50 nM, UDP-Glucose 0.8 mM, G6P 1 mM; geometric mean of at least 2 runs
Excerpt: The GYS1 coupled enzyme assay is a kinetic biochemical assay that indirectly quantifies the rate of glycogen synthesis by coupling the conversion of GYS1 substrate UDP-glucose into UDP with downstream enzymatic reactions. UDP is released from UDP-glucose as glucose monomers are linked into the growing glycogen strand by GYS1. […] Oxidation of NADH to NAD+ can be measured continuously with a plate reader by quantifying the decrease in NADH absorbance at 340 nm over time. […]
measurement_name: IC50 (nM)

[[record]]
compound = "CC1(c2ccc([C@@H](NC(=O)[C@@H]3C[C@@H](F)CN3C(=O)CN3CCN(CC(F)(F)F)CC3=O)c3ccccc3)cc2F)CC1"
measurement_units = "nM"
observed = 249

[[record]]
compound = "COc1cccc(C(NC(=O)[C@@H]2C[C@@H](F)CN2C(=O)Cc2cnn[nH]2)c2ccc(C(C)C)c(F)n2)c1 (single isomer, unassigned)"
measurement_units = "nM"
observed = 77

[[record]]
compound = "CC(C)c1ccc([C@@H](NC(=O)[C@@H]2C[C@@H](F)CN2C(=O)Cc2ccc[nH]c2=O)c2ccccc2)nc1F"
measurement_units = "nM"
observed = 12


* * *

biological target: hGYS1 enzyme (recombinant hGYS1/GN1 protein) (Homo sapiens (Human), UniProt P13807); experiment: GYS1 coupled enzyme assay (PK/LDH); details: hGYS1/GN1 50 nM, UDP-Glucose 0.8 mM, G6P 1 mM; geometric mean of at least 2 runs
Sequence (P13807 whole entry): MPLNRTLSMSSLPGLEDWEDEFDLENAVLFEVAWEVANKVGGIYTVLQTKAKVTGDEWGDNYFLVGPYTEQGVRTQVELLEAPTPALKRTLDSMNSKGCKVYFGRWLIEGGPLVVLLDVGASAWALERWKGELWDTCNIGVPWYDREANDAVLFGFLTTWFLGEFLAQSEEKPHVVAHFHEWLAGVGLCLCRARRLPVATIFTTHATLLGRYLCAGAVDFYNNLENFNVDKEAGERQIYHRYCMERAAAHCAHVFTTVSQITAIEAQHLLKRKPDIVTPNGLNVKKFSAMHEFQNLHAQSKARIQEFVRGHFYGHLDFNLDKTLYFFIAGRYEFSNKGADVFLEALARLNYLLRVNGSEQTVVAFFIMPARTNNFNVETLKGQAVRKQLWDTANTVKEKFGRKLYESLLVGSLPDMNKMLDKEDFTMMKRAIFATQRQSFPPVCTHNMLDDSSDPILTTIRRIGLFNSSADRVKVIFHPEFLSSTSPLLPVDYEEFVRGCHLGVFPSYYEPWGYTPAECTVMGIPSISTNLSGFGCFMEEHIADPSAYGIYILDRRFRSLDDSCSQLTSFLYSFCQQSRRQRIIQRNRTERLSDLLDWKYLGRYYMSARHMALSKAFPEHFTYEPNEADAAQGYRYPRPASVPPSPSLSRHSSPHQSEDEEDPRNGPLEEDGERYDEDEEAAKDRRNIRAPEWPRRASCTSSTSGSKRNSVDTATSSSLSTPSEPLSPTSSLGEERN
Sequence (P46976 whole entry partner): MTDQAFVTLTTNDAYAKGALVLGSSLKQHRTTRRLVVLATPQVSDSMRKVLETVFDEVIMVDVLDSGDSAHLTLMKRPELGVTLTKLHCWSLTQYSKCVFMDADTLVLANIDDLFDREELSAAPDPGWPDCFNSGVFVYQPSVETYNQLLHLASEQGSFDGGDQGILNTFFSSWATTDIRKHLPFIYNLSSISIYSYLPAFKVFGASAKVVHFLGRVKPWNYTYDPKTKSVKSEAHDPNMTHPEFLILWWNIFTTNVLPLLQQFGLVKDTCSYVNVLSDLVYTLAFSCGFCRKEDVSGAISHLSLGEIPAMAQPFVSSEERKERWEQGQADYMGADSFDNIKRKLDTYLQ
pIC50: −log10 of the molar value.
Reported pIC50 by item:
measurement_name: pIC50

[[record]]
compound = "CC(C)c1ccc(C(NC(=O)[C@@H]2C[C@@H](F)CN2C(=O)Cc2cnn[nH]2)c2ncn3ccccc23)nc1F (single isomer, unassigned)"
observed = 5.83

[[record]]
compound = "CC(C)c1ccc([C@@H](NC(=O)[C@@H]2C[C@@H](F)CN2C(=O)Cn2ccnn2)c2ccccc2)cc1 (stereo in doubt)"
observed = 7.40

[[record]]
compound = "Cn1nc(CC(=O)N2C[C@H](F)C[C@H]2C(=O)N[C@@H](c2ccccc2)c2ccc(C3CC3)c(F)n2)n(C)c1=O"
observed = 7.07

[[record]]
compound = "CCC(C)c1ccc(C(NC(=O)[C@@H]2C[C@@H](F)CN2C(=O)Cc2cnn[nH]2)c2ccccc2)cc1F (single isomer, unassigned) [Compound 677]"
observed = 7.29

[[record]]
compound = "CC(C)c1ccc([C@@H](NC(=O)[C@@H]2C[C@@H](F)CN2C(=O)CCCc2ccncc2)c2ccccc2)cc1"
observed = 6.89

[[record]]
compound = "CC(=O)Nc1cccc([C@H](NC(=O)[C@@H]2C[C@@H](F)CN2C(=O)Cc2cn(C)nn2)c2ccc(C(C)C)cc2)c1"
observed = 6.32

[[record]]
compound = "O=C(N[C@@H](c1ccccc1)c1ccc(C2CC2)c(F)c1)[C@@H]1C[C@@H](F)CN1C(=O)Cc1nnc(C(F)F)o1"
observed = 6.78

[[record]]
compound = "CC(C)c1ccc([C@@H](NC(=O)[C@@H]2C[C@@H](F)CN2C(=O)CC#N)c2ccccc2)cc1"
observed = 6.63

[[record]]
compound = "CC(=O)N1CCCC(C(=O)N2C[C@H](F)C[C@H]2C(=O)N[C@@H](c2ccccc2)c2ccc(C(C)C)cc2)C1C (stereo partly drawn)"
observed = 7.42

[[record]]
compound = "CC(C)c1ccc([C@@H](NC(=O)[C@@H]2C[C@@H](F)CN2C(=O)C2(c3nnco3)CC2)c2ccccc2)cc1F"
observed = 6.78

[[record]]
compound = "Cc1nccc(NCC(=O)N2C[C@H](F)C[C@H]2C(=O)N[C@H](c2ccccc2)c2ccc(C3CC3)c(F)n2)n1"
observed = 5.61

[[record]]
compound = "O=C(NC(c1ccccc1)c1ccc(C2CCC2)c(F)c1)[C@@H]1C[C@@H](F)CN1C(=O)Cc1cnn[nH]1 (single isomer, unassigned) [Compound 673]"
observed = 5.76

[[record]]
compound = "CC(C)c1ccc([C@@H](NC(=O)[C@@H]2C[C@@H](F)CN2C(=O)C2CCC(=O)NC2)c2ccccc2)cc1 (stereo partly drawn)"
observed = 6.84

[[record]]
compound = "CC(C)c1ccc([C@@H](NC(=O)[C@@H]2C[C@@H](F)CN2C(=O)CCn2nc3ccccn3c2=O)c2ccccc2)nc1"
observed = 7.25

[[record]]
compound = "CC(C)c1ccc([C@@H](NC(=O)[C@@H]2C[C@@H](F)CN2C(=O)CCc2n[nH]c(=O)[nH]2)c2ccccc2)nc1"
observed = 6.91


Hello, the source for this data is patent US11814367B2, in case you need it.
